The origin of these recorded values is PubChem BioAssay (Tox21).

assayRemarks: qHTS assay to identify small molecule antagonists of the thyroid receptor (TR) signaling pathway - cell viability counter screen (AID 743064); further: nearly all actives have a fitted effect of over 50% in size
assayConditions: GH3.TRE-Luc viability, CellTiter-Fluor, 24 h; series mostly up to 70.3 µM
Records with an inconclusive call do not appear. The source made the active and inactive calls. The call rests on the fitted dose curve; in most records, active means well fitted cell-killing curve with a large enough effect in the repeat runs; inconclusive means weak or mixed curves, or effect the other way; inactive means no such curve, though single readings can be large or run the other way.
Choose the fitting class; nothing outside active, inactive is accepted.

For orientation, consider the following solved cases.
INSERT INTO measurements (molecule, assignedlabel) VALUES
  ('O=C(NC(=O)c1c(F)cccc1F)Nc1ccc(OC(F)(F)C(F)OC(F)(F)F)c(Cl)c1 (stereo unspecified)', 'inactive'),
  ('C=CC(=O)OC(C)(C)C', 'inactive'),
  ('Nc1nc(N)nc(N)n1', 'inactive'),
  ('CCn1cc[n+](C)c1', 'inactive'),
  ('CC[C@H]1C[C@H]2[C@@H]3CCC4=CC(=O)CC[C@@H]4[C@H]3CC[C@]2(C)[C@H]1O', 'inactive');

INPUT: Look up the recorded call for "Brc1ccc(Oc2ccccc2)cc1" in this test.
OUTPUT: inactive

INPUT: Record request — test call for "CCOS(C)(=O)=O"
OUTPUT: inactive

INPUT: Per the assay record, what outcome was assigned to "O=C(O)COc1ccc(Cl)cc1" ?
OUTPUT: inactive

INPUT: Called result for "CCCCCCCCCC(=O)O[C@H]1CC[C@H]2[C@@H]3CCC4=CC(=O)CC[C@@H]4[C@H]3CC[C@]12C"
OUTPUT: inactive

INPUT: So what was the verdict on "COP(=S)(OC)Oc1ccc([N+](=O)[O-])cc1Cl" in this test?
OUTPUT: inactive

###

assayRemarks: qHTS assay to identify small molecule agonists of the retinoic acid receptor (RAR) signaling pathway (AID 1159553)
assayConditions: C3RL4 RARE luciferase reporter, agonist, 6 h; series mostly up to 73.3 µM
Inconclusive results are not listed. Activity calls are given as the source filed them. Calls follow the shape of the dose curve; as a rule, active = well fitted activation curve with a large enough effect in the repeat runs; inconclusive = weak or mixed curves, or effect the other way; inactive = no such curve, though single readings can be large or run the other way.
Pick from T for active, F for inactive when you respond.

INSERT INTO results (molecule, assignedlabel) VALUES
  ('CN(N=O)c1ccc([N+](=O)[O-])cc1', 'F');

Now look at this one.
INPUT: So what was the verdict on "O=Cc1ccc2c(c1)OCO2" in this test?
OUTPUT: F

###

assayRemarks: qHTS assay to identify small molecule antagonists of the thyroid receptor (TR) signaling pathway - cell viability counter screen (AID 743064); further: nearly all actives have a fitted effect of over 50% in size
assayConditions: GH3.TRE-Luc viability, CellTiter-Fluor, 24 h; series mostly up to 70.3 µM
Records with an inconclusive call do not appear. Activity calls are given as the source filed them. The call rests on the fitted dose curve; in most records, active means well fitted cell-killing curve with a large enough effect in the repeat runs; inconclusive means weak or mixed curves, or effect the other way; inactive means no such curve, though single readings can be large or run the other way.
Log the outcome using a class from true (1) (active), false (0) (inactive)

Consider the following illustrative entries.
INSERT INTO results (molecule, assignedlabel) VALUES
  ('CS/C(C)=N/OC(=O)N(C)SN(C)C(=O)O/N=C(\C)SC', 'true (1)'),
  ('CN1C(=O)NC(=O)C(C)(C2=CCCCC2)C1=O (centres undefined)', 'false (0)'),
  ('CC(=O)NC1CCSC1=O (centres undefined)', 'false (0)'),
  ('Cl/C=C\Cl', 'false (0)');

INPUT: What outcome does the record of this test show for "CCOc1nc(F)cc2nc(S(=O)(=O)Nc3c(Cl)cccc3Cl)nn12" ?
OUTPUT: false (0)

###

assayRemarks: qHTS assay to test for compound auto fluorescence at 590 nm (red) in HepG2 cells (AID 720674)
assayConditions: HepG2 autofluorescence, red 540/590 nm, 1 h; series mostly up to 91.3 µM
Calls of active or inactive are those of the source. Calls come from the whole dose curve; as a rule, active = well fitted curve in the direction sought with a large enough effect in the repeat runs; inconclusive = weak or mixed curves; inactive = flat fitted curve, though single readings scatter.
measuredEndpoint: fluorescence, relative to Rose Bengal

# annotated cases, reported fluorescence, relative to Rose Bengal shown
INSERT INTO results (molecule, recordedvalue) VALUES
  ('CC(=O)c1cc2c(cc1C)C(C)(C)C(C)CC2(C)C (configuration not stated)', 'inactive'),
  ('CC1CC(CC2CCC(N)C(C)C2)CCC1N (configuration not stated)', 'inactive'),
  ('Cc1ccc2ccccc2c1', 'inactive'),
  ('O=C(O)C1(c2ccc3c(c2)OC[C@H](Cc2ccc(-c4ccccc4)cc2)[C@H]3O)CCCC1', 'inactive'),
  ('CCOc1ccc(C(C)(C)COCc2cccc(Oc3ccccc3)c2)cc1', 'inactive');

Dear reader, for each entry below, please note its fluorescence, relative to Rose Bengal.
1. CC(C)(Cl)[N+](=O)[O-]
2. NC(=O)C(Cl)(Cl)Cl

OUTPUT:
inactive
inactive

###

assayRemarks: qHTS RealTime-Glo MT Cell Viability Assay in HEK293 cells - 0 hour (AID 1224880); further: top concentration of the series differs between compounds; nearly all actives have a fitted effect of over 45% in size
assayConditions: RealTime-Glo luminescence; series mostly up to 76.8 µM
Inconclusive results are not listed. The source made the active and inactive calls. The call rests on the fitted dose curve; in most records, active means well fitted cell-killing curve with a large enough effect in the repeat runs; inconclusive means weak or mixed curves, or effect the other way; inactive means flat fitted curve, though single readings scatter.
measuredEndpoint: activity change, negative = cytotoxicity

Before answering, review these 5 worked examples.
INSERT INTO measurements (compound, recordedvalue) VALUES
  ('C=CC(=O)OCC(C)O (centres undefined)', 'inactive'),
  ('CC(=O)CCC(C)=O', 'inactive'),
  ('CCCN(CC1CC1)c1c([N+](=O)[O-])cc(C(F)(F)F)cc1[N+](=O)[O-]', 'inactive'),
  ('Clc1ccc(C2(Cn3cncn3)CC(Br)CO2)c(Cl)c1 (centres undefined)', 'inactive'),
  ('C[C@H]1CNCCc2ccc(Cl)cc21', 'inactive');

Give me activity change, negative = cytotoxicity for each of these compounds, listed below.
1. ClCC(Br)CBr (centres undefined)
2. N#CCc1ccccc1
3. CCCCCCCCCC(=O)O[C@H]1CC[C@H]2[C@@H]3CCC4=CC(=O)CC[C@@H]4[C@H]3CC[C@]12C

OUTPUT:
["inactive", "inactive", "inactive"]

###

assayedSystem: Cytochrome P450 1A2 (Homo sapiens)
assayRemarks: Cytochrome P450 Family 1 Subfamily A Member 2 (CYP1A2) small molecule antagonists: luciferase reporter qHTS assay (AID 1671199); further: nearly all actives have a fitted effect of over 50% in size
assayConditions: P450-Glo CYP1A2 enzyme, luciferin luminescence, 1 h; series mostly up to 115 µM
Records with an inconclusive call do not appear. Activity calls are given as the source filed them. Calls come from the whole dose curve; as a rule, active = well fitted inhibition curve with a large enough effect in the repeat runs; inconclusive = weak or mixed curves; inactive = no such curve, though single readings can be large or run the other way.
Output constraint: value belongs to active, inactive

INPUT: Which outcome was entered for the molecule "O=[N+]([O-])C(Br)(CO)CO" in this test?
OUTPUT: active

INPUT: Dear all, I need the recorded test outcome for Clc1ccc(C2(Cn3cncn3)CC(Br)CO2)c(Cl)c1 (configuration not stated) , thank you.
OUTPUT: active

INPUT: Fill in: this test's call for "CCCN(CCC)c1c([N+](=O)[O-])cc(S(C)(=O)=O)cc1[N+](=O)[O-]" is ___
OUTPUT: inactive

INPUT: I would be grateful if you could indicate the recorded call for "C[C@H]1CNCCc2ccc(Cl)cc21" .
OUTPUT: inactive

INPUT: Which outcome was entered for the molecule CCCCC(CC)COP(=O)(Oc1ccccc1)Oc1ccccc1 (configuration not stated) in this test?
OUTPUT: active

INPUT: Given "Cc1ccccc1C(=O)Nc1cccc(OC(C)C)c1" , state the outcome it received in this test.
OUTPUT: active

INPUT: What did this assay record as the result for "Cc1ccc(-c2c(Cl)nc(C#N)n2S(=O)(=O)N(C)C)cc1" ?
OUTPUT: active

INPUT: For "OCCCBr" , what call appears in the results of this test?
OUTPUT: active

INPUT: What outcome does the record of this test show for "COC(N)=O" ?
OUTPUT: active

###

assayRemarks: qHTS assay to identify small molecule agonists of the progesterone receptor (PR) signaling pathway - cell viability counter screen (AID 1346799); further: nearly all actives have a fitted effect of over 45% in size
assayConditions: PR-UAS-bla HEK293T viability, CellTiter-Glo luminescence, 16 h; series mostly up to 92.4 µM
Inconclusive results are not listed. Calls of active or inactive are those of the source. Calls come from the whole dose curve.
Outcomes you can answer with include only these: active, inactive

Worked set:
INSERT INTO measurements (compound, assignedlabel) VALUES
  ('CC(=O)CCC(C)=O', 'inactive'),
  ('O=C(O)COc1ccc(Cl)cc1', 'inactive'),
  ('CCCN(CC1CC1)c1c([N+](=O)[O-])cc(C(F)(F)F)cc1[N+](=O)[O-]', 'inactive'),
  ('C/C(=C\c1ccccc1)[N+](=O)[O-]', 'active'),
  ('COc1cc(CC(C)N)cc2c1OCO2 (stereo not given)', 'inactive'),
  ('Cl/C=C\C[N+]12CN3CN(CN(C3)C1)C2', 'inactive'),
  ('Cc1ccccc1CCl', 'inactive'),
  ('Clc1ccc(C(OCCN2CCCCC2)c2ccccc2)cc1 (stereo not given)', 'inactive'),
  ('Cn1cc[n+](C)c1 (tested in a mixture with another compound)', 'inactive'),
  ('CCOC(=O)C(Cl)C(C)=O (stereo not given)', 'inactive');

INPUT: Hello, I am checking results. What call was entered for "S=C=NCc1ccccc1" ?
OUTPUT: inactive

INPUT: Answer briefly: the call reported for "N#Cc1ccc(Cl)cc1" in this assay.
OUTPUT: inactive

INPUT: Hi, sorry to bother you, what did the test record for "C=CC(=O)OC" ?
OUTPUT: inactive

INPUT: Dear all, I need the recorded test outcome for "Brc1ccc(Oc2ccccc2)cc1" , thank you.
OUTPUT: inactive

INPUT: Returns: the outcome recorded for "CC(C)=CCOc1c2occc2cc2ccc(=O)oc12" in this assay.
OUTPUT: inactive

INPUT: I'd appreciate the recorded outcome for "C=CCCl" from this test.
OUTPUT: inactive

INPUT: Given "ClCc1cccc(Cl)c1" , state the outcome it received in this test.
OUTPUT: inactive

INPUT: Recorded call for "Clc1cccc(SC2CCNCC2)n1" ?
OUTPUT: inactive

INPUT: Please indicate how the test categorized "N#CCc1ccccc1" .
OUTPUT: inactive

INPUT: How did this test come out for Cc1c(F)c(F)c(COC(=O)C2C(/C=C(\Cl)C(F)(F)F)C2(C)C)c(F)c1F (stereo not given) ?
OUTPUT: inactive

INPUT: # outcome recorded in this test, key = "O=C(CBr)c1ccccc1"
OUTPUT: inactive

INPUT: Hi team, can someone confirm the assay call for "BrCCCCBr" ?
OUTPUT: inactive
